Test system: NCI-H226 lung
assay.remarks: NCI-60 one-dose screen, 48 h (100 = growth as untreated, 0 = no growth, -100 = all killed)
conditions.used: 10 µM unless noted
Compounds without any hit were thinned out: in the full panel of roughly 83,000, 20% have a hit.
value.kind: growth (%)
One number for each entry, in %.

Use these answered entries as a reference point.
> print(dat)
                                   molecule    target.desc  units.symbol  assay.result
1  COc1cc(/C=N/NC(=S)NNC(=S)NC2CCCCC2)cc(OC)c1OC  NCI-H226 lung             %          91.2
2  COc1cnc2c(c1)C(=O)c1c-2n(CCCN2CCN(CCO)CC2)c(=O)c2cc([N+](=O)[O-])ccc12  NCI-H226 lung             %            64
3  Cn1cc(-c2csc(-c3cn(CCNC(=O)OC(C)(C)C)c4ccccc34)n2)c2cccnc21  NCI-H226 lung             %          55.9
4                       O=C1C=Cc2ncccc2C1=O  NCI-H226 lung             %          81.8
5  Cc1ccsc1-c1ccc2c(c1)COC2(CCCN(C)C)c1ccc(F)cc1 (stereo unspecified)  NCI-H226 lung             %            93

Query: Quote growth reported for CCC(CC)C(=O)OC(C)COc1ccc(C(C)(C)C)cc1 (stereo unspecified) please.
Result: 100

---

Tested on: MCF7 breast
assay.remarks: NCI-60 one-dose screen, 48 h (100 = growth as untreated, 0 = no growth, -100 = all killed)
conditions.used: 10 µM unless noted
About 83,000 compounds went through this panel and 20% of them were active in at least one assay; those are over-represented in the sample as a whole.
value.kind: growth (%)
Give bare numbers, in %.

> print(dat)
                                   compound  value.kind  assay.result
1  COc1ccc(/C=C/C(=O)NCC(C)O)cc1 (stereo unspecified)      growth          94.9
2                COc1ccc(/C=C/C(=O)NCCO)cc1      growth          94.8
3  C=C1C(=O)O[C@H]2[C@H]1CC/C(COC(=O)NCCc1c[nH]c3ccccc13)=C\CC[C@@]1(C)O[C@@H]21      growth          6.64

I need growth for every entry listed below, if you could help.
1. C/C(Cc1ccc(Cl)cc1)=C(/c1ccc(Cl)cc1)c1ccc(OCCN2CCCC2)cc1
2. O=c1[nH]c(=S)[nH]c2nc[nH]c12
3. COc1ccc(-c2cc(-c3c(C)oc4cc5occc5c(OC)c4c3=O)nc(N)c2C#N)cc1OC

Result:
31
97.4
24.8

---

Test system: MDA-MB-435 melanoma
assay.remarks: NCI-60 one-dose screen, 48 h
conditions.used: 10 µM unless noted
This is part of a sample that, as a whole, favours compounds with a hit. Of some 83,000 tested, about 20% had one in any assay. Activity calls are given as the source filed them. Rule for the calls: active = growth percent below 10; inactive = the rest.
Result category, one only: active, inactive

Reference set (6 entries):
compound	qualitative.label
COc1cc(OC)c2c(c1)c1nc3cc(C)c(C)cc3nc1n2CCN(C)C	inactive
COc1ccc(-c2n/c(=C\c3c(O)[nH]c4ccc(OC)cc34)cc3c2=Nc2ccccc2-3)cc1	active
COc1ccc(/C=C(\C#N)c2cc3ccccc3n2S(C)(=O)=O)cc1	active
C=C1C(=O)O[C@H]2[C@H]1CC/C(COC(=O)NCc1cc3ccccc3[nH]1)=C\CC[C@@]1(C)O[C@@H]21	active
Cc1cc(N2CCCCC2)nc(N(CCNc2ccnc3cc(Cl)ccc23)Cc2ccco2)n1	inactive
COc1cc2c(cc1-c1c(C)noc1C)ncc1nc(C3CC3)n([C@H](C)COC(F)F)c12	inactive

Query: Hi, sorry to bother you, what did the test record for O=C1CNCCN1 ?
Result: inactive
